- test_summary: Probe fluorescence ratio response to linolenic acid relative to ADIFAB2
- Type: binding
- reported_conditions: response relative to ADIFAB2

[
  {
    "molecule": "14W 18L 117S 72A (protein, listed as Rattus norvegicus, PEPTIDE (1)...(131) wild-type rat intestinal fatty acid binding protein) AFDGTWKVDRNENWEKFLEKMGINVVKRKLGAHDNLKLTITQEGNKFTVKESSNFRNIDVVFELGVDFAYSAADGTELTGTWTMEGNKLVGKFKRVDNGKELIAVREISGNELIQTSTYEGVEAKRIFKKE",
    "DR/DR LNA": 0.835
  },
  {
    "molecule": "31Q3, 72A (protein, listed as Rattus norvegicus, PEPTIDE (1)...(131) wild-type rat intestinal fatty acid binding protein) AFDGTWKVDRNENYEKFMEKMGINVVKRKLQAHDNLKLTITQEGNKFTVKESSNFRNIDVVFELGVDFAYSAADGTELTGTWTMEGNKLVGKFKRVDNGKELIAVREISGNELIQTYTYEGVEAKRIFKKE",
    "DR/DR LNA": 1.49
  },
  {
    "molecule": "73W 74T (protein, listed as Rattus norvegicus, PEPTIDE (1)...(131) wild-type rat intestinal fatty acid binding protein) AFDGTWKVDRNENYEKFMEKMGINVVKRKLGAHDNLKLTITQEGNKFTVKESSNFRNIDVVFELGVDFAYSLWTGTELTGTWTMEGNKLVGKFKRVDNGKELIAVREISGNELIQTYTYEGVEAKRIFKKE",
    "DR/DR LNA": 3.286
  },
  {
    "molecule": "14Q 18L 31A 73W 117V 72A (protein, listed as Rattus norvegicus, PEPTIDE (1)...(131) wild-type rat intestinal fatty acid binding protein) AFDGTWKVDRNENQEKFLEKMGINVVKRKLAAHDNLKLTITQEGNKFTVKESSNFRNIDVVFELGVDFAYSAWDGTELTGTWTMEGNKLVGKFKRVDNGKELIAVREISGNELIQTVTYEGVEAKRIFKKE",
    "DR/DR LNA": 1.958
  },
  {
    "molecule": "119L, 72A (protein, listed as Rattus norvegicus, PEPTIDE (1)...(131) wild-type rat intestinal fatty acid binding protein) AFDGTWKVDRNENYEKFMEKMGINVVKRKLGAHDNLKLTITQEGNKFTVKESSNFRNIDVVFELGVDFAYSAADGTELTGTWTMEGNKLVGKFKRVDNGKELIAVREISGNELIQTYTLEGVEAKRIFKKE",
    "DR/DR LNA": 1.053
  }
]
